Target: T1, corticotropin-releasing hormone (CRH) peptide (human and mouse (same sequence), not fully specified)
T1 peptide: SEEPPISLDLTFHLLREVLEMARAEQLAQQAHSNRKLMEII
Test: cell-based or functional assay
Form field: hCRHR1 Luciferase Reporter Assay IC50 (one value per entry).

BINDER	hCRHR1 Luciferase Reporter Assay IC50
PR302341-72 (antibody, human IgG1, kappa, V domains shown) VH: QVQLVQSGAEVKKPGASVKVSCKASGYTFTDYFMKWVRQAPGQRLEWMGVINPNNGDIFYNQKFKGRVTITRDTSASTAYMELSSLRSEDTAVYYCARGTDRALFAYWGQGTLVTVSS VL: DVVMTQSPLSLPVTLGQPASISCRSGQSIVHSSGNTYLEWYQQRPGQSPRLLIYKVSNRFSGVPDRFSGSGSGTDFTLKISRVEAEDLGVYYCFQGSHIPWTFGGGTKVEIKR	1.73 nM
PR302064 (antibody, human IgG1, kappa, V domains shown, humanized variant of PR301777) VH: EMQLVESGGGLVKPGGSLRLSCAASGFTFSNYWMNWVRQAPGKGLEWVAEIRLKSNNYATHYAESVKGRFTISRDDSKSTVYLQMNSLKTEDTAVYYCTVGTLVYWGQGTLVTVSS VL: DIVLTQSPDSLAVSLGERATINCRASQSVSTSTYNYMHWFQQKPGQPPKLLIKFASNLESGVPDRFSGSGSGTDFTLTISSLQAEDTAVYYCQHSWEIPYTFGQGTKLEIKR	0.989 nM
PR302341-32 (antibody, human IgG1, kappa, V domains shown) VH: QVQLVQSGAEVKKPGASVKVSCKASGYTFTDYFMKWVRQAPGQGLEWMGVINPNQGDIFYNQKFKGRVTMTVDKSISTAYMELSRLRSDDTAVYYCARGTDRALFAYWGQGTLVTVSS VL: DVVMTQSPLSLPVTLGQPASISCRSGQSIVHSEGNTYLEWYQQRPGQSPRLLIYKVSNRFSGVPDRFSGSGSGTDFTLKISRVEAEDLGVYYCFQGSHIPWTFGGGTKVEIKR	1.89 nM
